From: ChEMBL document CHEMBL1157539

Listed next: entries and their corresponding Inhibition.
- System: Plasmodium falciparum
- Test details: GSK_TCMDC: Inhibition of Plasmodium falciparum Dd2 in whole red blood cells, using parasite LDH activity as an index of growth. Test compounds present at 2uM
- Format: functional

>  <Molecule>
Cc1cccc(C(=O)Nc2ccc(N3CCCN(Cc4cccc(O)c4)CC3)cc2)c1.O=C(O)C(F)(F)F

>  <Reading unit>
%

>  <Inhibition>
44

$$$$
>  <Molecule>
Cc1[nH]c2ccc(-c3ccc(N(C)C)cc3)cc2c(=O)c1Cl

>  <Reading unit>
%

>  <Inhibition>
96

$$$$
>  <Molecule>
COc1ccc2nccc([C@@H](O)CN3CCC(NCc4cc5ccccc5o4)CC3)c2c1.O=C(O)C(=O)O

>  <Reading unit>
%

>  <Inhibition>
72

$$$$
>  <Molecule>
COc1ccc(CNC2CCN(C)CC2)cc1-c1ccc(S(=O)(=O)NCCc2ccccn2)s1.O=C(O)C(F)(F)F

>  <Reading unit>
%

>  <Inhibition>
12

$$$$
>  <Molecule>
COc1cccc(CNC[C@@H](O)[C@H](Cc2ccccc2)NC(=O)c2cc(N3CCCC3=O)c3[nH]cc(C(C)C)c3c2)c1

>  <Reading unit>
%

>  <Inhibition>
98

$$$$
>  <Molecule>
COc1cc(F)c2nccc([C@@H](O)CN3CCC(NCc4nc5cccc(F)c5[nH]4)CC3)c2c1.O=C(O)C(=O)O

>  <Reading unit>
%

>  <Inhibition>
5

$$$$
>  <Molecule>
CCCCC(=O)Nc1nc2ccc([N+](=O)[O-])cc2s1

>  <Reading unit>
%

>  <Inhibition>
69

$$$$
>  <Molecule>
CC(CN1CCN(C)CC1)C(=O)Nc1ccc(-c2cccc(-c3nc4cc(C(F)(F)F)ccc4[nH]3)c2)cc1 (stereo not given)

>  <Reading unit>
%

>  <Inhibition>
96

$$$$
>  <Molecule>
NC1=NC(c2ccccc2)(c2ccccc2)C(=O)N1Cc1ccc(-c2ccncc2)cc1.O=CO

>  <Reading unit>
%

>  <Inhibition>
74

$$$$
>  <Molecule>
Br.COc1ccccc1CCCON1C(=N)N=C(N)NC1(C)C

>  <Reading unit>
%

>  <Inhibition>
92

$$$$
>  <Molecule>
Fc1ccc2[nH]c(-c3ccc(-c4ccc(CN5CCC(CCN6CCCCC6)CC5)cc4)cc3)nc2c1.O=C(O)C(F)(F)F

>  <Reading unit>
%

>  <Inhibition>
100

$$$$
>  <Molecule>
CCN(CC)CCN(Cc1ccc(-c2ccc(Cl)cc2)cc1)C(=O)Cn1cc(CN(C)C)c(=O)nc1SCc1ccc(F)cc1

>  <Reading unit>
%

>  <Inhibition>
99

$$$$
>  <Molecule>
Cn1cc(CN2CCCC(COC(c3ccc(F)cc3)c3ccc(F)cc3)C2)cn1 (stereo not given)

>  <Reading unit>
%

>  <Inhibition>
100

$$$$
>  <Molecule>
COc1ccc(C2C(C(=O)Nc3ccc(C)cc3Br)c3ccccc3C(=O)N2C)cc1 (stereo not given)

>  <Reading unit>
%

>  <Inhibition>
2

$$$$
>  <Molecule>
Cc1ccc2ccncc2c1N

>  <Reading unit>
%

>  <Inhibition>
4

$$$$
>  <Molecule>
Cc1cccc2nc(-c3ccc(-c4cccc(NC(=O)NCc5ccccc5)c4)cc3)[nH]c12

>  <Reading unit>
%

>  <Inhibition>
0

$$$$
>  <Molecule>
CCC(C)(C)c1ccc(OCC(O)CN2CCCCC2)c(C(C)(C)CC)c1 (stereo not given)

>  <Reading unit>
%

>  <Inhibition>
26

$$$$
>  <Molecule>
Cc1c(C2CCN(CCCCNC(=O)c3ccc(-c4ccc(C#N)cc4)cc3)CC2)c2ccccc2n1CCO

>  <Reading unit>
%

>  <Inhibition>
99

$$$$
>  <Molecule>
Cc1nc(-c2cccc(NCc3ccccc3)c2)[nH]c1C.Cl

>  <Reading unit>
%

>  <Inhibition>
48

$$$$
>  <Molecule>
COC(=O)c1cccc(NC(=O)NC2CCN(c3ccnc(Nc4cc(OC)c(OC)c(OC)c4)n3)C2)c1 (stereo not given)

>  <Reading unit>
%

>  <Inhibition>
68

$$$$
>  <Molecule>
COc1ccc(COc2c(OC)cc(Cc3cnc(N)nc3N)cc2OC)cc1

>  <Reading unit>
%

>  <Inhibition>
23

$$$$
>  <Molecule>
COc1ccc2nccc(N3CCC(CCNCc4cc5c(cn4)OCCO5)CC3)c2n1.Cl

>  <Reading unit>
%

>  <Inhibition>
100

$$$$
>  <Molecule>
O=C(Nc1ccc(Cl)cc1)Nc1ccc(OCC(O)CN2CCCCC2)cc1 (stereo not given)

>  <Reading unit>
%

>  <Inhibition>
13

$$$$
>  <Molecule>
Cc1nc(N)nc(N)c1-c1ccc2ccccc2c1

>  <Reading unit>
%

>  <Inhibition>
2

$$$$
>  <Molecule>
Oc1ccc(CCNCc2ccc(OCc3ccccc3)c(OCc3ccccc3)c2)cc1

>  <Reading unit>
%

>  <Inhibition>
9

$$$$
